Values from ChEMBL document CHEMBL1143389

# Test system: Bacillus subtilis
# Measurement Description: Antimicrobial activity against Bacillus subtilis ATCC 6633 after 24 hrs by MTT assay
# Assay type: functional
# Condition Notes: ATCC 6633, 24 h
Recorded Metric: MIC (µg/mL)

The examples below pair each entry with its known result.
Cc1oc(-c2ccc(F)cc2F)nc1N1N=C(c2ccccc2C(F)(F)F)CC1N1CCc2ccccc2C1 (configuration not stated) = 12.5
COc1ccc2c(c1)CN(C1CC(c3ccccc3C(F)(F)F)=NN1c1nc(-c3ccc(F)cc3F)oc1C)CC2 (configuration not stated) = 3.12
Cc1oc(-c2ccccc2F)nc1N1N=C(c2ccc(Cl)cc2Cl)CC1N1CCc2ccccc2C1 (configuration not stated) = 3.12
COc1ccc2c(c1)CN(C1CC(c3ccc(Cl)cc3Cl)=NN1c1nc(-c3ccccc3C(F)(F)F)oc1C)CC2 (configuration not stated) = 3.12
C=Cc1ccccc1-c1nc(N2N=C(c3ccc(Cl)cc3Cl)CC2N2CCc3ccc(OC)cc3C2)c(C)o1 (configuration not stated) = 3.12

[I] COc1ccc2c(c1)CN(C1CC(c3ccccc3C(F)(F)F)=NN1c1nc(-c3ccccc3C(F)(F)F)oc1C)CC2 (configuration not stated)
[II] Cc1oc(-c2ccccc2F)nc1N1N=C(c2ccccc2C(F)(F)F)CC1N1CCc2ccccc2C1 (configuration not stated)
Query block: // max by MIC over [ I , II ] Select an item and report its label.
Result block: II
(II: 12.5 µg/mL, I: 3.12 µg/mL)
